Data credit: the supplement of paper PMC9170038

- Tested on: MS2 coat protein
- assayMethodText: apparent KD of MS2 coat protein; designed switch direction (-1 OFF switch, 1 ON switch): -1; higher = weaker reporter binding
- conditionSet: input ligand: FMN 200 uM
Reported apparent KD of MS2 coat protein values are given for each entry in this list.
measureName: apparent KD of MS2 coat protein (nM)

>  <primarySequence>
ACAUGUCAUCGAGGAUAUUGGACACAUGAGGAUCACCCAUGUACUCGGAUGCUCUAGCAUGAGUUCGAGAAGGCGAUGUACAUU [Ex NG2 #79] (Eterna round: R96, puzzle: Exclusion NG 2)

>  <measureName>
apparent KD of MS2 coat protein

>  <reported>
1350

$$$$
>  <primarySequence>
ACGAUGACCGAAAAGUGUUAACUGACAUGAGGAUCACCCAUGUAGGAUAUGGCUACGAAAAGUAGUCAGAAGGGCAUGUCAUCA [Omei Exc(NG) 3 Av8] (Eterna round: R96, puzzle: Exclusion NG 3)

>  <measureName>
apparent KD of MS2 coat protein

>  <reported>
27

$$$$
>  <primarySequence>
UUUUAACAAGCGAGGUCCUACAUGAGGAUCACCCAUGUAUGUCAUGGAUUCCAUGGUCUUUUUGCUCGUCUUGUGUG [jl TITIN mod 8] (Eterna round: R97, puzzle: Sensor, turn-off variant 1)

>  <measureName>
apparent KD of MS2 coat protein

>  <reported>
103

$$$$
>  <primarySequence>
AGGUCAUUAGGAUAUGUCGAAUAUGACAUGAGGAUCACCCAUGUGGUAGGCAUGUCGUAGACAGAAGGAGUGUAAA [Laqureis] (Eterna round: R97, puzzle: Exclusion 5)

>  <measureName>
apparent KD of MS2 coat protein

>  <reported>
219

$$$$
>  <primarySequence>
AUUUAAUUUAGCGAGAUCACAUGAGGAUCACCCAUGUAUAUAUAGGAUAUCAGCUCGUGUAGAGCUGAGAAGGAUAUAUACCGC [ExNG3/7-A3] (Eterna round: R96, puzzle: Exclusion NG 3)

>  <measureName>
apparent KD of MS2 coat protein

>  <reported>
108

$$$$
